Source: the array DNA melting data of Ke et al. (doi:10.1101/2024.01.08.574731)

Assay: melting temperature; fluorescence melt of hairpins on a sequencing array, two-state fit, raised by 9.35 °C to match UV melts
Details: sodium 0.088 M
Give TRUE when the value for Tm is at least 50 °C. Give FALSE when it is less.

Asked: Is Tm for GATCAAGACTTTGATC ((((((....)))))) at or above 50 °C?
Given back: TRUE

Asked: Okay, and GGCATCACGAAAGTGGCC (((..(((....)))))) ?
Given back: FALSE

Asked: Okay, and GTCGTCGGAAACGATGGC (.(.(((....))).).) ?
Given back: FALSE

Asked: Okay, and GATCTCTGAGGAGATC ((((((....)))))) ?
Given back: TRUE

Asked: Okay, and GATCAAGAGATTGATC ((((((....)))))) ?
Given back: FALSE

Asked: Okay, and ATTCCGAAAGGAAT (((((....))))) ?
Given back: TRUE

Asked: Okay, and GCCTGTGCGAAAGCAGGC (((..(((....)))))) ?
Given back: TRUE

Asked: Okay, and GACATGCGAAAGCACGTC (((.(((....))).))) ?
Given back: TRUE

Asked: Okay, and GATCCTCCAGAGGATC ((((((....)))))) ?
Given back: TRUE

Asked: Okay, and GCGCCCCGAAAGGGTCGC (((.(((....))).))) ?
Given back: TRUE

Asked: Okay, and GCAGCCGAAAGGCCATGC ((((((....)))..))) ?
Given back: FALSE
